Tested on: HCV core protein (core106) dimerization, Hepatitis C virus
test_description: HCV core106 dimerization inhibitors, late-stage follow-up, biochemical, AlphaScreen luminescence, single dose 15 µM, powder samples (AID 651576)
condition_notes: AlphaScreen GST/Flag-core106 dimerization, at 15 µM, hits give high values
Calls of active or inactive are those of the source.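 Rule for the calls: active = inhibition of at least 50%, averaged over three replicate wells; inactive = inhibition below 50%.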
quantity: inhibition

| compound | readout_value |
| --- | --- |
| Cc1ccc(Cc2c(C)nc3nc(SCC(=O)NCCC4=CCCCC4)nn3c2C)cc1 | 22% (inactive) |
| Cc1ccc(Cc2c(C)nc3nc(SCC(=O)NCCNC(=O)CSc4nc5nc(C)c(Cc6ccc(C)cc6)c(C)n5n4)nn3c2C)cc1 | 52% |
| Cc1ccc(Cc2c(C)nc3nc(SCC(=O)N4CCN(C(=O)CSc5nc6nc(C)c(Cc7ccc(C)cc7)c(C)n6n5)CC4)nn3c2C)cc1 | 87% |
| Cc1ccc(Cc2c(C)nc3nc(SCC(=O)NC4CCCCCCC4)nn3c2C)cc1 | 59% |
| Cc1ccc(Cc2c(C)nc3nc(SCC(=O)NC4CCC(NC(=O)CSc5nc6nc(C)c(Cc7ccc(C)cc7)c(C)n6n5)CC4)nn3c2C)cc1 (stereo not drawn) | 92% |
| Cc1ccc(Cc2c(C)nc3nc(SCC(=O)NCCN4CCCNCC4)nn3c2C)cc1 | < 50% (inactive) |
| Cc1ccc(Cc2c(C)nc3nc(SCC(=O)NCCN4CCN(Cc5ccccc5)CC4)nn3c2C)cc1 | 66% |
| Cc1ccc(Cc2c(C)nc3nc(SCC(=O)NCCCN4CCCCCC4)nn3c2C)cc1 | 16% (inactive) |

Each recorded value in this set is attributed to PubChem BioAssay AID651576.
